target: human M5 receptor (Homo sapiens); construct: expressed in transfected cells; assay: HTRF IP-One curve shift assay, M5; type: cell-based; conditions: M5; MK-4710 concentration 0 nM
Sequence (P08912 whole entry): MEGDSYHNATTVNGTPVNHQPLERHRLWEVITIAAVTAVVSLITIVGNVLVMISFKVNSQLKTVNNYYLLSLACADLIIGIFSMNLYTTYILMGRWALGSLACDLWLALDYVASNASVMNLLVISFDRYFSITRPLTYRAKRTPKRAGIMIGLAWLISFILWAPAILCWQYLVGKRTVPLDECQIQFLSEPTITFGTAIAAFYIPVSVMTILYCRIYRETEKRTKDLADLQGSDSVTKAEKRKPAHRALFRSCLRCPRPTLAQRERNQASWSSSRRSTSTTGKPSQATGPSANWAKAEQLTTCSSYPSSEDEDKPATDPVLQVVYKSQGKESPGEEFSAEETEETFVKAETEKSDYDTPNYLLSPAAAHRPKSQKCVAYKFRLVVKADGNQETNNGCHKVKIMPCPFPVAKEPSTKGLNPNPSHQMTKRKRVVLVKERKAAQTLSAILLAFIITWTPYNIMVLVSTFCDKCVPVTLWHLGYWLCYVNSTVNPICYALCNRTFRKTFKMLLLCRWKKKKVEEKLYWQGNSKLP
Emax values, listed per item
Hi, when you answer, please include the unit after the number. Thanks!

Use the examples below as a reference point.
COMPOUND: CCCCCCOc1nsnc1C1=CCCN(C)C1 [xanomeline, reference compound]
Emax: 77.91%

COMPOUND: CC(=O)OCC[N+](C)(C)C [acetylcholine, reference compound]
Emax: 71.2%

COMPOUND: CC1OC2(CS1)CN1CCC2CC1 (centres unmarked) [cevimeline, Cevimeline, reference compound]
Emax: 70.31%

COMPOUND: CCCCCOc1nsnc1C1=CCCCN1C
Emax: 53.95%

Challenge: Consider the compound "CCCCCCCOc1nsnc1C1=CCCCN1C" and give its recorded Emax.
Response given: 81.82%
